- Tested on: HBV strain A, L180M+M204V (highly Lamivudine-resistant strain)
- Method notes: HBV propagation suppression in Huh-7 cells, strain A (highly Lamivudine-resistant)
- Assay type: cell-based
- Condition description: Hepatitis B virus, Huh-7, read-out: 50% propagation suppression
pIC50: −log10 of the molar value.
Measured parameter: pIC50

[[record]]
molecule = "CC#CCOc1ccc(C[C@H](NC(=O)[C@@H](/C=C/CCCCCCC(=O)CCCCCCC)[C@@](O)(CC(=O)O)C(=O)O)C(=O)O)cc1"
measured_on = "HBV strain A, L180M+M204V (highly Lamivudine-resistant strain)"
observed = 5.47

